Overview of recorded protein stability index for various sequences
experiment: protein stability index of a GFP-peptide fusion (GPS, HEK-293T) (PSI 1-6); higher = more stable; conditions: treatment: MLN4924 1 uM, 8 h; c terminus: a fixed tail appended;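 also: 24-mer peptide tiles fused after GFP, lentivirally expressed, FACS-sorted into six equal bins by GFP/DsRed ratio, decoded by Illumina sequencing, PSI is the read-weighted mean bin number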

>  <Sequence string>
ITRPSPRRSNSPDKFKRPTPPPSP [CCDC6]

>  <protein stability index>
5.44

$$$$
>  <Sequence string>
QKFDTLYAILDEKKSELLQRITQE [TRIM63]

>  <protein stability index>
3.21

$$$$
>  <Sequence string>
MLTLPFDESVVMPESQMCRKFSRE [NEUROD6]

>  <protein stability index>
3.77

$$$$
>  <Sequence string>
LEEGKHSSHEVKALGAMWKLHKSQ [TRIM9]

>  <protein stability index>
4.22

$$$$
>  <Sequence string>
QHHHHHHHHHGRDFLLRAASFDVC [RHOBTB2]

>  <protein stability index>
2.58

$$$$
>  <Sequence string>
REIKVTLVFEHVDQDLRTYLDKAP [CDK4]

>  <protein stability index>
2.68

$$$$
>  <Sequence string>
DLKLGNFFINEAMELKVGDFGLAA [PLK2]

>  <protein stability index>
2.63

$$$$
>  <Sequence string>
LLCPLCQEEEQAETPMAPVPLGPL [TRIM15]

>  <protein stability index>
3.73

$$$$
>  <Sequence string>
PINYQGLRFSGVNDTDFRVYLLGN [POMT2]

>  <protein stability index>
2.46

$$$$
>  <Sequence string>
SNNITLREDQLDTVLAVLEDSSRD [INTS4]

>  <protein stability index>
5.28

$$$$
>  <Sequence string>
SNVQEVRCPVTVCGDVHGQFHDLM [PPP2CA]

>  <protein stability index>
3.49

$$$$
>  <Sequence string>
LASYLDRVRSLETENRRLESKIRE [KRT18]

>  <protein stability index>
3.7

$$$$
>  <Sequence string>
REERLRRENEELSARYLSQCQEAE [FBF1]

>  <protein stability index>
4.97

$$$$
>  <Sequence string>
ILELLVLEQFLAILPKELQAWVQK [ZNF396]

>  <protein stability index>
2.65

$$$$
>  <Sequence string>
TTSTLASSLPGHAAKTLPGGAGKG [EHMT1]

>  <protein stability index>
5.28

$$$$
>  <Sequence string>
QQFKQYSRHVTTRAALTYTSLEIT [M1AP]

>  <protein stability index>
2.6

$$$$
>  <Sequence string>
EEELIRIFQEQQKKWQQYRSVRRE [FAM9B]

>  <protein stability index>
4.07

$$$$
>  <Sequence string>
LCDVVLVVGAKKIYAHRVILSACS [KLHL20]

>  <protein stability index>
2.74

$$$$
>  <Sequence string>
EAAGGESALAPSVFKQAKDKVSDG [MAP2]

>  <protein stability index>
5.43

$$$$
>  <Sequence string>
FVLNAAQCSMPLHVAPLLAAAGLH [NR2F2]

>  <protein stability index>
2.49

$$$$
>  <Sequence string>
AAARCVVLDCRPYLAFAASNVRGS [DUSP5]

>  <protein stability index>
2.2

$$$$
>  <Sequence string>
PPALLPLYFQWYIFYFVIQRKKWV [FADS1]

>  <protein stability index>
2.73

$$$$
>  <Sequence string>
QGVCYLVLCEAAFPKKLAFAYLED [SEC22B]

>  <protein stability index>
3.05

$$$$
>  <Sequence string>
RRDAETWFLSKTEELNKEVASNSE [KRT16]

>  <protein stability index>
5.19

$$$$
>  <Sequence string>
NIEDYFSHHLAVYNSPQFKKTMST [FBXO39]

>  <protein stability index>
2.71

$$$$
>  <Sequence string>
QRLIVGNSALKDKEDQFGRTPLMY [INVS]

>  <protein stability index>
3.31

$$$$
>  <Sequence string>
YISPELCEGKPYNQKSDIWALGCV [NEK8]

>  <protein stability index>
2.01

$$$$
>  <Sequence string>
NITINIVDDHTPWVKGSVPPPLDQ [CLPTM1]

>  <protein stability index>
2.77

$$$$
>  <Sequence string>
SEEELTHIFGDLDSYIPLHEDLLT [NET1]

>  <protein stability index>
4.03

$$$$
>  <Sequence string>
ILAVSFAPLIQPCHSESGKSRLVQ [PCMTD2]

>  <protein stability index>
1.93

$$$$
>  <Sequence string>
ENYHKLRRSSSKCIHDHHCGSQLS [NETO1]

>  <protein stability index>
3.26

$$$$
>  <Sequence string>
NCCLTLCNFSIPEELEFQYRRVNE [ZER1]

>  <protein stability index>
2.55

$$$$
>  <Sequence string>
KKEELLFDDGDDIMATLGFGDSPK [FBF1]

>  <protein stability index>
4.59

$$$$
>  <Sequence string>
KMAHVIAACLYLVCRTEGTPHMLL [BRF1]

>  <protein stability index>
2.84

$$$$
>  <Sequence string>
IQVSLYCQEWYARRHCPLPQATFW [SOAT2]

>  <protein stability index>
3.07

$$$$
>  <Sequence string>
DGSYALNGEYTLMPSPTDVVLPGA [ADAMTS4]

>  <protein stability index>
3.87

$$$$
>  <Sequence string>
DRIRFTVNRRISIVGFGLYGSIHG [BTBD1]

>  <protein stability index>
2.32

$$$$
>  <Sequence string>
NPELIKPKKLLNPVKASRSHQELH [FAM107A]

>  <protein stability index>
4.24

$$$$
>  <Sequence string>
SFWNSSHPRGWNDHVHILDTETFT [KLHDC2]

>  <protein stability index>
2.39

$$$$
>  <Sequence string>
RAPKVLGTTLVVGLLAGVGYFAFM [GDAP1]

>  <protein stability index>
3.17

$$$$
>  <Sequence string>
MKSCKNLKGGLQEVAEQLELERIG [CNOT7]

>  <protein stability index>
4.47

$$$$
>  <Sequence string>
LKKKQKRQAELLEKRLQEIEELER [SRPK2]

>  <protein stability index>
4.24

$$$$
>  <Sequence string>
LLKPIPEYSPEEESEPPAPNIRNM [TRAF3IP2]

>  <protein stability index>
5.22

$$$$
>  <Sequence string>
SKMDQLAKELTAEKRLEGQEEEED [CHGA]

>  <protein stability index>
5.42

$$$$
>  <Sequence string>
DIASRYPTLWTEQVKSRQNKTNKN [SMOC2]

>  <protein stability index>
4.36

$$$$
>  <Sequence string>
RLTQYMDGSGMPKTMQSEETRVWH [CAMK2D]

>  <protein stability index>
3.51

$$$$
>  <Sequence string>
ATYCVRTFALYKNGSSEKREVRQF [PTPRD]

>  <protein stability index>
2.35

$$$$
>  <Sequence string>
LRRRLEELQQELSLKDQERVAEVS [LRRC45]

>  <protein stability index>
3.89

$$$$
>  <Sequence string>
IPGFKFDNSLINQIENLNIQVEDI [LOXL2]

>  <protein stability index>
3.37

$$$$
>  <Sequence string>
GASKAAGVFGFFATIVFATDFYLI [CMTM3]

>  <protein stability index>
2.88

$$$$
>  <Sequence string>
QVPRSPVIKISYSTPQGKGEVVKI [PWWP2B]

>  <protein stability index>
2.58

$$$$
>  <Sequence string>
HYDRNKDGNKDVYLSLLRMYLSPP [VPS39]

>  <protein stability index>
2.16

$$$$
>  <Sequence string>
CQHLSSSAEELRKARSNSTLSKSE [KCNA3]

>  <protein stability index>
4.75

$$$$
